# TARGET_SYSTEM: T1, purified α4β1 VLA4 integrin (UniProt P13612 34-1032; P05556 21-798)
# T1 construct: Purified VLA4 coated on the plate at 1 ug/ml; also called α4β1 integrin
# T1 sequence (P13612 34-1032, form in doubt, chain 1 of 2): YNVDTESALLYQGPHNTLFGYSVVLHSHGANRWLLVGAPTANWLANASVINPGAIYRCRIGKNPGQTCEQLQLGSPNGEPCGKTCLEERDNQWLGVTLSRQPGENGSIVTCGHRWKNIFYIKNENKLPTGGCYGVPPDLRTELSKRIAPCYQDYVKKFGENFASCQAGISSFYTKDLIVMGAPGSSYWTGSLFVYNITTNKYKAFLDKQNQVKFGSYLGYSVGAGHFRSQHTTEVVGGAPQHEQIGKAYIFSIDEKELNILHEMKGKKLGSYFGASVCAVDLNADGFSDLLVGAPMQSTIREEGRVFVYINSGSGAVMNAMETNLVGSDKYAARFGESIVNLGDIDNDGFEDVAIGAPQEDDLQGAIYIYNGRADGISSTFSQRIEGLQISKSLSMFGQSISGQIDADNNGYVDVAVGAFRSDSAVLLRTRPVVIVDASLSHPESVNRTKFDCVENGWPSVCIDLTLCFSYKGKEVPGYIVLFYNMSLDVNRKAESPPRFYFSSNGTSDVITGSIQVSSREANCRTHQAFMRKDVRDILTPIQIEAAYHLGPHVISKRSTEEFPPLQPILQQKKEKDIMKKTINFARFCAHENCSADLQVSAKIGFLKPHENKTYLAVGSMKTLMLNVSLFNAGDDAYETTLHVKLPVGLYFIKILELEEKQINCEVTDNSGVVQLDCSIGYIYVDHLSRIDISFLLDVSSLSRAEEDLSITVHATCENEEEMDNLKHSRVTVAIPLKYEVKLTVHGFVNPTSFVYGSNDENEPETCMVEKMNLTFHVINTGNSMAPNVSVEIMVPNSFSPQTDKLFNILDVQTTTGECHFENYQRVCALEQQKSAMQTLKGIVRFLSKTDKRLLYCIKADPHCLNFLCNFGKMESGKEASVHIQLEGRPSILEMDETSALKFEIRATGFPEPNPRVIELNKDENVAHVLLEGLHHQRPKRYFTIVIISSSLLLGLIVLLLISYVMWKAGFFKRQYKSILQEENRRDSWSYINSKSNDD
# T1 sequence (P05556 21-798, form in doubt, chain 2 of 2): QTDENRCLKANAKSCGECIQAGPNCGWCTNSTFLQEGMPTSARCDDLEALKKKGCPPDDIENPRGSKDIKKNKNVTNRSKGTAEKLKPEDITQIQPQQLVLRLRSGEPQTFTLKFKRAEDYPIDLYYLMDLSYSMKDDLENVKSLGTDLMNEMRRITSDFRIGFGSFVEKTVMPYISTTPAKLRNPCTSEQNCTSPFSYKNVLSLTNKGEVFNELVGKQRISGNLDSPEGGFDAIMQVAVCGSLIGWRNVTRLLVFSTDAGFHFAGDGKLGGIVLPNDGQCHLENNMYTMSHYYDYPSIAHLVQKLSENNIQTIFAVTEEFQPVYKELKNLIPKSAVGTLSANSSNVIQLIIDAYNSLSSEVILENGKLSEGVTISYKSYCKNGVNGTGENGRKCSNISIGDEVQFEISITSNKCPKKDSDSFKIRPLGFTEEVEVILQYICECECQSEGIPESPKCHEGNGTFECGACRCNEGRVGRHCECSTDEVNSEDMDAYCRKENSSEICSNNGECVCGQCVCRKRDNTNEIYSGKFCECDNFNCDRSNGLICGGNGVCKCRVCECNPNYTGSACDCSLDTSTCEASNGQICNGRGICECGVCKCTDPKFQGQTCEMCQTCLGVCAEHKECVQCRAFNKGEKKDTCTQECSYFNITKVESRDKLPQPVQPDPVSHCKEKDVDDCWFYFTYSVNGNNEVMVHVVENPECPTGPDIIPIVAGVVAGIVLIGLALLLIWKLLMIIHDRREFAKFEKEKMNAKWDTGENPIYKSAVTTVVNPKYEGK
# MEASUREMENT_NOTES: ELISA, Fab on plate-coated purified VLA4, goat anti-human IgG HRP detection
READOUT_KIND: log10 EC50 (log10 of the value in nM)
Please keep in mind that the values are log10 of EC50 expressed in nM.

Item under review: Humanized HP1/2 Fab V24S_F27Y_T32V (Fab, V domains shown, Fab fragment; Constant parts are not specified) VH: EVQLVQSGAEVKKPGATVKISCKSSGYNIKDVYMHWVQQAPGKGLEWMGRIDPASGDTKYDPKFQVRVTITADTSTDTAYMELSSLRSEDTAVYYCATGMWVSTGYALDFWGQGTLVTVSS VL: DIVMTQSPDSLAVSLGERATINCKASQSVTNDVAWYQQKPGQPPKLLIYYASNRYTGVPDRFSGSGSGTDFTLTISSLQAEDVAVYYCQQDYSSPYTFGQGTKVEIK . Reported log10 EC50?
-1.49

Query: log10 EC50; subject: Humanized HP1/2 Fab V24F_T32V (Fab, V domains shown, Fab fragment; Constant parts are not specified) VH: EVQLVQSGAEVKKPGATVKISCKFSGFNIKDVYMHWVQQAPGKGLEWMGRIDPASGDTKYDPKFQVRVTITADTSTDTAYMELSSLRSEDTAVYYCATGMWVSTGYALDFWGQGTLVTVSS VL: DIVMTQSPDSLAVSLGERATINCKASQSVTNDVAWYQQKPGQPPKLLIYYASNRYTGVPDRFSGSGSGTDFTLTISSLQAEDVAVYYCQQDYSSPYTFGQGTKVEIK
-0.89

Looking for the measured log10 EC50 of Chimeric HP1/2 Fab (murine VH and VL domains) (Fab, V domains shown, Fab fragment; Constant parts (CH1, CL) are not specified; detection was with goat anti-human IgG HRP conjugate; also called chimeric Fab) VH: EVQLQQSGAELVKPGASVKLSCTASGFNIKDTYMHWVKQRPEQGLEWIGRIDPASGDTKYDPKFQVKATITADTSSNTAWLQLSSLTSEDTAVYYCADGMWVSTGYALDFWGQGTTVTVSS VL: SIVMTQTPKFLLVSAGDRVTITCKASQSVTNDVAWYQQKPGQSPKLLIYYASNRYTGVPDRFTGSGYGTDFTFTISTVQAEDLAVYFCQQDYSSPYTFGGGTKLEIK , can you help?
-1.28

Please report the recorded log10 EC50 for HP1/2 Fab, straight CDR graft (VH CDR graft paired with VL CDR graft) (Fab, V domains shown, Fab fragment; Constant parts are not specified) VH: EVQLVQSGAEVKKPGATVKISCKVSGFNIKDTYMHWVQQAPGKGLEWMGRIDPASGDTKYDPKFQVRVTITADTSTDTAYMELSSLRSEDTAVYYCATGMWVSTGYALDFWGQGTLVTVSS VL: DIVMTQSPDSLAVSLGERATINCKASQSVTNDVAWYQQKPGQPPKLLIYYASNRYTGVPDRFSGSGSGTDFTLTISSLQAEDVAVYYCQQDYSSPYTFGQGTKVEIK .
0.04

Name the reported log10 EC50 value associated with the binder Humanized HP1/2 Fab V24A_T32V (Fab, V domains shown, Fab fragment; Constant parts are not specified) VH: EVQLVQSGAEVKKPGATVKISCKASGFNIKDVYMHWVQQAPGKGLEWMGRIDPASGDTKYDPKFQVRVTITADTSTDTAYMELSSLRSEDTAVYYCATGMWVSTGYALDFWGQGTLVTVSS VL: DIVMTQSPDSLAVSLGERATINCKASQSVTNDVAWYQQKPGQPPKLLIYYASNRYTGVPDRFSGSGSGTDFTLTISSLQAEDVAVYYCQQDYSSPYTFGQGTKVEIK
-1.18

Which log10 EC50 value belongs to Humanized HP1/2 Fab F27Y_T32V_M96L (VH SEQ ID NO: 25) (Fab, V domains shown, Fab fragment; Constant parts are not specified) VH: EVQLVQSGAEVKKPGATVKISCKVSGKNIKDVYMHWVQQAPGKGLEWMGRIDPASGDTKYDPKFQVRVTITADTSTDTAYMELSSLRSEDTAVYYCATGLWVSTGYALDFWGQGTLVTVSS VL: DIVMTQSPDSLAVSLGERATINCKASQSVTNDVAWYQQKPGQPPKLLIYYASNRYTGVPDRFSGSGSGTDFTLTISSLQAEDVAVYYCQQDYSSPYTFGQGTKVEIK ?
-0.85
